Data provenance is the kinase profiling compilation of Christmann-Franck et al. (2016).

So I've got a bunch of compounds here, and I need their residual activity values.
- measured target: TEC (human)
- method summary: radiometric filter-binding kinase assay, Kinase HotSpot
- reported conditions: compound 0.5 µM; ATP 10 µM
Enter your answer as a number in %; do not include the unit.

Query N/C(=N\N=C/c1ccc(-c2cccc([N+](=O)[O-])c2)o1)N[N+](=O)[O-] yields residual activity of 147

Query O=C(c1ccccc1)c1ccc(N2CCOCC2)cc1O yields residual activity of 119

Query CCCCc1c(-c2ccc(O)cc2)[nH]c2nccnc12 yields residual activity of 87.3

Query COc1cc2ncnc(Nc3ccc(O)c(Br)c3)c2cc1OC yields residual activity of 108

Query Cn1cc(/C=C2\C(=O)Nc3ccc(S(N)(=O)=O)cc32)c2ccccc21 yields residual activity of 157

Query N#CCCc1ccc2c(c1)-c1[nH]c3ccc([N+](=O)[O-])cc3c1CC(=O)N2 yields residual activity of 120

Query COc1cc2c(Nc3ccc(Br)cc3F)ncnc2cc1OCC1CCN(C)CC1 yields residual activity of 91.6

Query O=C(O)c1ccc2c3c1cccc3c(=O)n1c3ccccc3nc21 yields residual activity of 123

Query O=S(=O)(NCCNC/C=C/c1ccc(Br)cc1)c1cccc2cnccc12 yields residual activity of 102

Query FC(F)(F)c1ccc(/C=C/c2nc(COc3ccc(CCCCn4ccnn4)cc3)co2)cc1 yields residual activity of 86.4

Query O=c1cc(N2CCOCC2)oc2c(-c3ccccc3)cccc12 yields residual activity of 107

----------
- measured target: PKN2 (human) (UniProt Q16513)
- Sequence (Q16513 whole entry, looked up): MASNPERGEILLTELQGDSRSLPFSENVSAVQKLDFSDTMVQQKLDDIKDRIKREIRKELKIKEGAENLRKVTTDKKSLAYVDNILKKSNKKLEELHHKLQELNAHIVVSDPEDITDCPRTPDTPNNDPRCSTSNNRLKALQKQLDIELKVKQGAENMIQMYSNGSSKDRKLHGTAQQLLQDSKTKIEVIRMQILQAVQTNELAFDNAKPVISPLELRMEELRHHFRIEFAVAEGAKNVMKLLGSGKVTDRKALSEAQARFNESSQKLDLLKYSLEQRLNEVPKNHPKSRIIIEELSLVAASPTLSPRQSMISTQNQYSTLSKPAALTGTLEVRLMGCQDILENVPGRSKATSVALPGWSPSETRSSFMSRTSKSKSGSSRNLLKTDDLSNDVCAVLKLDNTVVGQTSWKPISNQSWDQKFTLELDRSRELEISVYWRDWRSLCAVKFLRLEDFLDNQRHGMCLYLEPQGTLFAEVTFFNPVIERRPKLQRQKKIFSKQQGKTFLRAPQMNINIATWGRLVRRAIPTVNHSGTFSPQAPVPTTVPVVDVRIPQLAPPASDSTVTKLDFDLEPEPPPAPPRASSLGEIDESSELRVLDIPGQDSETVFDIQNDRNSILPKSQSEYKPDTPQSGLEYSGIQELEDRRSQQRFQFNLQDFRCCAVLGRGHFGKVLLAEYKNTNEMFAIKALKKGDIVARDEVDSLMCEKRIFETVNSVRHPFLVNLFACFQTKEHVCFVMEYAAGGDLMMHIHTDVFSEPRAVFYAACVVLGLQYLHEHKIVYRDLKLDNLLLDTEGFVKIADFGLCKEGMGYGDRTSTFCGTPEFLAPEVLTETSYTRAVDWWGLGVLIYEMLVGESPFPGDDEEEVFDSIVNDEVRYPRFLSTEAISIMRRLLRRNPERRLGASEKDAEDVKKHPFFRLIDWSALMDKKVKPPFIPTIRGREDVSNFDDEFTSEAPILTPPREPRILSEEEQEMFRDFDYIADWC
- method summary: radiometric filter-binding kinase assay, Kinase HotSpot
- reported conditions: compound 0.5 µM; ATP 10 µM
So I've got a bunch of compounds here, and I need their residual activity values.
Enter your answer as a number in %; do not include the unit.

Query O=S(=O)(NCCNC/C=C/c1ccc(Br)cc1)c1cccc2cnccc12 yields residual activity of 78.9

Query Cc1cc(Nc2nc(-c3ccccc3)nc3ccccc23)n[nH]1 yields residual activity of 87.2

Query FC(F)(F)c1ccc(/C=C/c2nc(COc3ccc(CCCCn4ccnn4)cc3)co2)cc1 yields residual activity of 107

Query CCCCc1c(-c2ccc(O)cc2)[nH]c2nccnc12 yields residual activity of 82.4

Query COc1cc2c(Nc3ccc(Br)cc3F)ncnc2cc1OCC1CCN(C)CC1 yields residual activity of 99.7

Query N#CCCc1ccc2c(c1)-c1[nH]c3ccc([N+](=O)[O-])cc3c1CC(=O)N2 yields residual activity of 77.9

Query N/C(=N\N=C/c1ccc(-c2cccc([N+](=O)[O-])c2)o1)N[N+](=O)[O-] yields residual activity of 92.6

Query CCc1nc(-c2ccc(OC)cc2)[nH]c1-c1ccncc1 yields residual activity of 95.7

Query c1ccc(-c2cnc(Nc3ccc(OCCN4CCCC4)cc3)s2)cc1 yields residual activity of 97

Query O=C1NC(=O)c2c1c1c3ccccc3[nH]c1c1[nH]c3cc(Br)ccc3c21 yields residual activity of 88.7

Query O=c1[nH]c2ccccc2n1C1CCN(Cc2ccc(-c3nc4cc5[nH]cnc5cc4nc3-c3ccccc3)cc2)CC1 yields residual activity of 73.2

Query O=C1NC(=O)c2cc(Nc3ccc(F)cc3)c(Nc3ccc(F)cc3)cc21 yields residual activity of 102

Query O=c1c2ccccc2[nH]c(=S)n1CCN1CCC(=C(c2ccc(F)cc2)c2ccc(F)cc2)CC1 yields residual activity of 97.2

Query O=C(c1ccccc1)c1ccc(N2CCOCC2)cc1O yields residual activity of 96.8

Query O=c1c(-c2ccc(F)cc2)c(-c2ccncc2)[nH]n1-c1ccc(Cl)cc1 yields residual activity of 96.4

Query Cn1cc(/C=C2\C(=O)Nc3ccc(S(N)(=O)=O)cc32)c2ccccc21 yields residual activity of 81.8

Query N#Cc1c(NC(=O)c2cccc3ccccc23)sc2c1CCCC2 yields residual activity of 103

Query COc1cc2c(cc1OC)-c1[nH]nc(Nc3cccc(F)c3)c1C2 yields residual activity of 92

Query O=C(O)c1ccc2c3c1cccc3c(=O)n1c3ccccc3nc21 yields residual activity of 97.9

Query N#C/C(=C1/Nc2ccccc2S1)c1ccnc(NCCc2cccnc2)n1 yields residual activity of 99.3

----------
- measured target: UniProt:P68400
- Sequence (P68400 whole entry, looked up): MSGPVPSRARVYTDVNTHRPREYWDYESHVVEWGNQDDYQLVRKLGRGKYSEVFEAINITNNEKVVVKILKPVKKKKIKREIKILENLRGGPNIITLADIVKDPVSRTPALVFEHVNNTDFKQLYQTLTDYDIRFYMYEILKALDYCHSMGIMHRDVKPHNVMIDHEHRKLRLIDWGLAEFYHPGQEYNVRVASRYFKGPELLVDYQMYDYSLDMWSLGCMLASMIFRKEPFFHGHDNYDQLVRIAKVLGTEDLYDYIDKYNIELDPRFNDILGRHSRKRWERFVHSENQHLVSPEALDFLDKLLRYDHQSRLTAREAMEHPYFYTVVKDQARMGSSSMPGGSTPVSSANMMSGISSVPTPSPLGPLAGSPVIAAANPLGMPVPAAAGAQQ
- method summary: radiometric filter-binding kinase assay, Kinase HotSpot
- reported conditions: compound 0.5 µM; ATP 10 µM
readout type: residual activity

Query COc1cc2ncnc(Nc3ccc(O)c(Br)c3)c2cc1OC yields residual activity of 93.7%

Query FC(F)(F)c1ccc(/C=C/c2nc(COc3ccc(CCCCn4ccnn4)cc3)co2)cc1 yields residual activity of 97.5%

Query COc1cc2c(Nc3ccc(Br)cc3F)ncnc2cc1OCC1CCN(C)CC1 yields residual activity of 112%

Query O=C(O)c1ccc2c3c1cccc3c(=O)n1c3ccccc3nc21 yields residual activity of 28.3%

----------
- measured target: CHUK (human) (UniProt O15111)
- Sequence (O15111 whole entry, looked up): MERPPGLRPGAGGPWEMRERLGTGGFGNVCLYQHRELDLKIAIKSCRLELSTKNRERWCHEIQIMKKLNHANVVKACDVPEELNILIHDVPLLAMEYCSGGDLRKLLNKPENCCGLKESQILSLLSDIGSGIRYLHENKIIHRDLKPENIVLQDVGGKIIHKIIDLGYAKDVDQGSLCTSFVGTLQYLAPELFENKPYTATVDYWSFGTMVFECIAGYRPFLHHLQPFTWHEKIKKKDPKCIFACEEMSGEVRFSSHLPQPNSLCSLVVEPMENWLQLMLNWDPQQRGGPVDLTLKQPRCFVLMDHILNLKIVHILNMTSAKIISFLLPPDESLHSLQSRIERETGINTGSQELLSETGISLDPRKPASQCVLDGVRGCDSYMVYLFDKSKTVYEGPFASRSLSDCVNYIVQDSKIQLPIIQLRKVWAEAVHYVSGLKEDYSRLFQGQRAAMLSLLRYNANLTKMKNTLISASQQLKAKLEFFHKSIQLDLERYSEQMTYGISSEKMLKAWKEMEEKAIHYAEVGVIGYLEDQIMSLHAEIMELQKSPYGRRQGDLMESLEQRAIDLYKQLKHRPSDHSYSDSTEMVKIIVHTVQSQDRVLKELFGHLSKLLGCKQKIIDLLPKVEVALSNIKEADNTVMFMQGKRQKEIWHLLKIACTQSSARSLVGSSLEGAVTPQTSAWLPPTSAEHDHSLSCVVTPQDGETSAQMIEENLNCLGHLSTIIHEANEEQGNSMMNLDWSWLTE
- method summary: radiometric filter-binding kinase assay, Kinase HotSpot
- reported conditions: compound 0.5 µM; ATP 10 µM
So I've got a bunch of compounds here, and I need their residual activity values.
Enter your answer as a number in %; do not include the unit.

residual activity of O=C1NC(=O)c2cc(Nc3ccc(F)cc3)c(Nc3ccc(F)cc3)cc21 , assay on CHUK (human) (UniProt O15111), is 99.2

residual activity of N/C(=N\N=C/c1ccc(-c2cccc([N+](=O)[O-])c2)o1)N[N+](=O)[O-] , assay on CHUK (human) (UniProt O15111), is 88.1

residual activity of O=c1c2ccccc2[nH]c(=S)n1CCN1CCC(=C(c2ccc(F)cc2)c2ccc(F)cc2)CC1 , assay on CHUK (human) (UniProt O15111), is 95

residual activity of O=c1c(-c2ccc(F)cc2)c(-c2ccncc2)[nH]n1-c1ccc(Cl)cc1 , assay on CHUK (human) (UniProt O15111), is 101

residual activity of COc1cc2c(Nc3ccc(Br)cc3F)ncnc2cc1OCC1CCN(C)CC1 , assay on CHUK (human) (UniProt O15111), is 96.6

residual activity of CCc1nc(-c2ccc(OC)cc2)[nH]c1-c1ccncc1 , assay on CHUK (human) (UniProt O15111), is 104

residual activity of Cn1cc(/C=C2\C(=O)Nc3ccc(S(N)(=O)=O)cc32)c2ccccc21 , assay on CHUK (human) (UniProt O15111), is 109

residual activity of CCOc1cc2ncnc(Nc3cccc(Br)c3)c2cc1OCC , assay on CHUK (human) (UniProt O15111), is 105

residual activity of O=C(c1ccccc1)c1ccc(N2CCOCC2)cc1O , assay on CHUK (human) (UniProt O15111), is 101

residual activity of N#Cc1c(NC(=O)c2cccc3ccccc23)sc2c1CCCC2 , assay on CHUK (human) (UniProt O15111), is 99.6

residual activity of COc1cccc(-c2cc(=O)c3ccccc3o2)c1N , assay on CHUK (human) (UniProt O15111), is 104

----------
- measured target: SGK2 (human) (UniProt Q9HBY8)
- Sequence (Q9HBY8 whole entry, looked up): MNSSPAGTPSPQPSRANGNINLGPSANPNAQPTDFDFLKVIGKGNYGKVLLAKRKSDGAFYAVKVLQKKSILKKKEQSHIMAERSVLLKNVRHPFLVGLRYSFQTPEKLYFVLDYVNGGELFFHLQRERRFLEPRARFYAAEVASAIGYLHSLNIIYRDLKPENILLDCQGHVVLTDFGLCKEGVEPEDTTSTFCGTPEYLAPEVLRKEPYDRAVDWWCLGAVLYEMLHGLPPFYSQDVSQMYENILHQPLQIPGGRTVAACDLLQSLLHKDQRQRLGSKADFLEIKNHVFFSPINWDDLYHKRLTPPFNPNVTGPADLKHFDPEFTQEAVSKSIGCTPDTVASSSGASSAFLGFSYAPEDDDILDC
- method summary: radiometric filter-binding kinase assay, Kinase HotSpot
- reported conditions: compound 0.5 µM; ATP 10 µM
readout type: residual activity (%)
Enter your answer as a number in %; do not include the unit.

Query O=C(c1ccccc1)c1ccc(N2CCOCC2)cc1O yields residual activity of 105

Query O=c1[nH]c2ccccc2n1C1CCN(Cc2ccc(-c3nc4cc5[nH]cnc5cc4nc3-c3ccccc3)cc2)CC1 yields residual activity of 112

Query O=c1c2ccccc2[nH]c(=S)n1CCN1CCC(=C(c2ccc(F)cc2)c2ccc(F)cc2)CC1 yields residual activity of 99.1

Query N/C(=N\N=C/c1ccc(-c2cccc([N+](=O)[O-])c2)o1)N[N+](=O)[O-] yields residual activity of 101

Query O=C1NC(=O)c2cc(Nc3ccc(F)cc3)c(Nc3ccc(F)cc3)cc21 yields residual activity of 99.7

Query COc1cc2c(Nc3ccc(Br)cc3F)ncnc2cc1OCC1CCN(C)CC1 yields residual activity of 122

Query CCOc1cc2ncnc(Nc3cccc(Br)c3)c2cc1OCC yields residual activity of 106

Query O=c1c(-c2ccc(F)cc2)c(-c2ccncc2)[nH]n1-c1ccc(Cl)cc1 yields residual activity of 94.3

Query N#CCCc1ccc2c(c1)-c1[nH]c3ccc([N+](=O)[O-])cc3c1CC(=O)N2 yields residual activity of 114

Query COc1cccc(-c2cc(=O)c3ccccc3o2)c1N yields residual activity of 95.9

Query Nc1ncnc2c1cnn2-c1ccccc1 yields residual activity of 98.4

Query COc1cc2c(cc1OC)-c1[nH]nc(Nc3cccc(F)c3)c1C2 yields residual activity of 98.6

Query Cc1cc(Nc2nc(-c3ccccc3)nc3ccccc23)n[nH]1 yields residual activity of 99.7

Query Cn1cc(/C=C2\C(=O)Nc3ccc(S(N)(=O)=O)cc32)c2ccccc21 yields residual activity of 80.7

Query O=S(=O)(NCCNC/C=C/c1ccc(Br)cc1)c1cccc2cnccc12 yields residual activity of 84.2
